read-out: Interferon-gamma inducible Protein 10 (IP10), CXCL10 (gene 3627); assay: BSK_BE3C_IP10: BioMAP Diversity Plus: BE3C Assay for Interferon-gamma inducible Protein 10 (IP10) Biomarker Activity (AID 2283034); conditions: primary human bronchial epithelial cells; actives raise or lower the signal
The source made the active and inactive calls. How the source made its calls: active means hit-call score of the fitted dose curve at least 0.9, where 1 is the maximum; inactive means score below 0.9.
quantity: outcome

>>> print(df.to_string())
                                   compound  quantity  measured_value
0  O=C(O)C(F)(F)C(F)(F)C(F)(F)C(F)(F)C(F)(F)C(F)(F)C(F)(F)C(F)(F)C(F)(F)C(F)(F)C(F)(F)C(F)(F)F   outcome        inactive
1  CCCCCCC(C)OC(=O)CCCCC(=O)OC(C)CCCCCC (stereo not drawn)   outcome        inactive
2  O=S(=O)(O)C(F)(F)C(F)(F)C(F)(F)C(F)(F)C(F)(F)C(F)(F)C(F)(F)F   outcome        inactive

###

target: human Retinoid X Receptor beta (RXRb), RXRB (gene 6257); assay: ATG_RXRb_TRANS: Attagene TRANS-FACTORIAL HepG2 Assay for human Retinoid X Receptor beta (RXRb) (AID 2283013)
Inconclusive results are not listed. Activity calls are given as the source filed them. How the source made its calls: active means hit-call score of the fitted dose curve at least 0.9, where 1 is the maximum; inconclusive means response in the unintended direction; inactive means score below 0.9.
quantity: AC50

Examples with their reported AC50 follow.
>>> print(df.to_string())
                                  structure    measured_value
0  CCCCCCCCC(F)(F)C(F)(F)C(F)(F)C(F)(F)C(F)(F)C(F)(F)F  21.2 µM (active)
1  CC(C)(C)C(=O)CC(=O)C(F)(F)C(F)(F)C(F)(F)F          inactive
2  FC(F)(Br)C(F)(F)C(F)(F)C(F)(F)C(F)(F)C(F)(F)Br          inactive
3  FC(F)(F)C(F)(F)C(F)(F)N(C(F)(F)C(F)(F)C(F)(F)F)C(F)(F)C(F)(F)C(F)(F)F          inactive

Switching to the query record.
stdin: What does the record list as AC50 for `C=CC(F)(F)C(F)(F)C(F)(F)C(F)(F)C(F)(F)C(F)(F)C(F)(F)C(F)(F)C=C` ?
stdout: inactive

###

assay: ATG_NFI_CIS: Attagene CIS-FACTORIAL HepG2 Assay for human Nuclear Factor I (NFI) (AID 2282989); conditions: HepG2 cis-regulatory reporter, NFI response element transcription; actives raise or lower the signal
Calls of active or inactive are those of the source. Rule for the calls: active = hit-call score of the fitted dose curve at least 0.9, where 1 is the maximum; inactive = score below 0.9.
Result category, one only: active, inactive

Record excerpt, results attached:
>>> print(df.to_string())
                                   molecule  discrete_label
0       O=C(O)C(F)(F)C(F)(F)C(F)(F)C(F)(F)F        inactive
1            CC(C)OC(=O)c1ccccc1C(=O)OC(C)C        inactive
2                            CC(C)c1ccccc1N        inactive
3  CC(C)(C)c1ccc(OC2CCCCC2O)cc1 (configuration not stated)        inactive
4  O=C(O)C(F)(F)C(F)(F)C(F)(F)C(F)(F)C(F)(F)C(F)(F)C(F)(F)C(F)(F)Cl        inactive
5      O=C(OCCOCCOCCOC(=O)c1ccccc1)c1ccccc1        inactive

stdin: How was CCCCCCC(C)OC(=O)CCCCC(=O)OC(C)CCCCCC (configuration not stated) classified in this test?
stdout: inactive

stdin: How was `CCc1ccc(C(c2ccc(CC)cc2)C(Cl)Cl)cc1` classified in this test?
stdout: inactive

###

assay: BSK_3C_Vis: BioMAP Diversity Plus: 3C Assay for Morphology Visualization (AID 2283025); settings: primary human endothelial cells (HUVEC);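 further: fitted both ways so gain or loss versus DMSO counts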
Active and inactive are the calls of the source. The calls were made as follows: active = hit-call score of the fitted dose curve at least 0.9, where 1 is the maximum; inactive = score below 0.9.
Result category, one only: active, inactive

stdin: How was `CC(=O)Nc1ccc(N=Nc2cc(C)ccc2O)cc1` classified in this test?
stdout: active

stdin: How was `CCc1c(Br)c(Br)c(Br)c(Br)c1Br` classified in this test?
stdout: inactive

stdin: How was `C=CC/C=C/C/C=C/C/C=C/C` classified in this test?
stdout: inactive

stdin: How was CCCCCCC(C)OC(=O)CCCCC(=O)OC(C)CCCCCC (stereo unspecified) classified in this test?
stdout: inactive

###

read-out: Vascular cell adhesion molecule 1 (VCAM1), VCAM1 (gene 7412); assay: BSK_CASM3C_VCAM1: BioMAP Diversity Plus: CASM3C Assay for Vascular cell adhesion molecule 1 (VCAM1) Biomarker Activity (AID 2283055); conditions: primary human coronary artery smooth muscle cells; actives raise or lower the signal;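 further: VCAM-1 protein level quantified by ELISA on the cells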
Activity calls are given as the source filed them. Rule for the calls: active = hit-call score of the fitted dose curve at least 0.9, where 1 is the maximum; inactive = score below 0.9.
Result category, one only: Yes for active, No for inactive

>>> df
                        compound  discrete_label
0  O=C(O)C(F)(F)C(F)(F)OC(F)(F)F              No
1   CCN(CC)c1ccc2c(C)cc(=O)oc2c1              No

stdin: How was `CCc1ccc(C(c2ccc(CC)cc2)C(Cl)Cl)cc1` classified in this test?
stdout: No

stdin: How was `Nc1ccc([N+](=O)[O-])cc1O` classified in this test?
stdout: No

###

target: Estrogen receptor (Homo sapiens); test: OT_ER_ERaERa_1440: Odyssey Thera (OT) 24-hour HEK293T Protein-Complementation Assay for Estrogen Receptor-alpha/-alpha Homodimer (AID 2283349);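 further: hits raise fluorescence above DMSO for agonists and antagonists alike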
The source made the active and inactive calls. How the source made its calls: active means hit-call score of the fitted dose curve at least 0.9, where 1 is the maximum; inconclusive means response in the unintended direction; inactive means score below 0.9.
quantity: AC50

Examples with their reported AC50 follow.
>>> df
                                   compound    measured_value
0  CCCCCCC(C)OC(=O)CCCCC(=O)OC(C)CCCCCC (stereo not given)          inactive
1                   Cc1ccc(S(=O)(=O)NCl)cc1          inactive
2                           Cc1cc(C)cc(O)c1          inactive
3           C(=C(c1ccccc1)c1ccccc1)c1ccccc1  43.1 µM (active)
4  C#C[C@]1(O)CC[C@H]2[C@@H]3CCc4cc(OC)ccc4[C@H]3CC[C@@]21C  17.1 µM (active)

Switching to the query record.
stdin: What does the record list as AC50 for `CCCCCCOC(=O)c1ccccc1` ?
stdout: inactive

###

Biological target: human RAR-related Orphan Receptor gamma (RORg), RORC (gene 6097) (UniProt P51449)
Sequence (P51449 whole entry, looked up): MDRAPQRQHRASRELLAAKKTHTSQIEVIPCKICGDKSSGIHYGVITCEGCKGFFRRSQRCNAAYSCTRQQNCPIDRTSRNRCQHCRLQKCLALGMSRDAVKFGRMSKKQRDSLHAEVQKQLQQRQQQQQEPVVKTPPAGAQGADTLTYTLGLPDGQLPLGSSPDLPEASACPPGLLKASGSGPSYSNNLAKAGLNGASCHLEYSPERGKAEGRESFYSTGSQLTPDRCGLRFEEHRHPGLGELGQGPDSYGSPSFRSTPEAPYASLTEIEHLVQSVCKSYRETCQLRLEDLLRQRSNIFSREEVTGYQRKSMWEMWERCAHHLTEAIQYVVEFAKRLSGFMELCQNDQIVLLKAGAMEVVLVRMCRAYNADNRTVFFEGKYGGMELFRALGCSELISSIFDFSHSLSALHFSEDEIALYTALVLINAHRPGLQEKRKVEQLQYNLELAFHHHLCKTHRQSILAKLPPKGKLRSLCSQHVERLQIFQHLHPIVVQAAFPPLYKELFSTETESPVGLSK
Experiment: ATG_RORg_TRANS: Attagene TRANS-FACTORIAL HepG2 Assay for human RAR-related Orphan Receptor gamma (RORg) (AID 2283011)
Experimental: ATG_TRANS is a cell-based, multiplexed-readout assay that uses HepG2, a human liver cell line, with measurements taken at 24 hours after chemical dosing in a 24-well plate.ATG_RORg_TRANS is one of 30 assay component(s) measured or calculated from the ATG_TRANS assay. […] This assay endpoint, ATG_RORg_TRANS, was analyzed in the positive analysis fitting direction relative to DMSO as the negative control and baseline of activity. […]
Records with an inconclusive call do not appear. Calls of active or inactive are those of the source. How the source made its calls: active means hit-call score of the fitted dose curve at least 0.9, where 1 is the maximum; inconclusive means response in the unintended direction; inactive means score below 0.9.
Result category, one only: active, inactive

Record excerpt, results attached:
>>> df
                                   compound  discrete_label
0  O=S(=O)(O)C(F)(F)C(F)(F)C(F)(F)C(F)(F)C(F)(F)C(F)(F)C(F)(F)F        inactive
1   COC(OC(C)=O)c1ccccc1 (stereo not drawn)        inactive
2  CC(C)(C)C(=O)CC(=O)C(F)(F)C(F)(F)C(F)(F)F        inactive
3  FC1CC(F)(F)C(F)(F)C1(F)F (stereo not drawn)        inactive
4                   Cc1ccc(S(=O)(=O)NCl)cc1        inactive
5            FC(F)(I)C(F)(F)C(F)(F)C(F)(F)I        inactive
6  CCN(Cc1cccc(S(=O)(=O)O)c1)c1ccc(C(=C2C=CC(=[N+](CC)Cc3cccc(S(=O)(=O)O)c3)C=C2)c2ccc(O)cc2S(=O)(=O)[O-])cc1        inactive
7                                   CCCCCCS        inactive
8              O=C(O)C(F)(F)C(F)(F)C(F)(F)F        inactive
9  FC(F)(F)C(F)(F)C(F)(F)C(F)(F)C(F)(F)C(F)(F)CCS        inactive

stdin: How was `O=C(O)C(F)(F)C(F)(F)C(F)(F)C(F)(F)F` classified in this test?
stdout: inactive

stdin: How was CC(Cc1ccc(O)c(O)c1)C(C)Cc1ccc(O)c(O)c1 (stereo not drawn) classified in this test?
stdout: inactive

stdin: How was FC(F)(F)C(F)(F)C(F)(F)C(F)(F)C(F)(F)C(F)(F)CC1CO1 (stereo not drawn) classified in this test?
stdout: inactive

stdin: How was `C=CC(F)(F)C(F)(F)C(F)(F)C(F)(F)C(F)(F)C(F)(F)C(F)(F)C(F)(F)C=C` classified in this test?
stdout: inactive

stdin: How was O=C(O)C(F)(OC(F)(F)C(F)(OC(F)(F)C(F)(OC(F)(F)C(F)(F)C(F)(F)F)C(F)(F)F)C(F)(F)F)C(F)(F)F (stereo not drawn) classified in this test?
stdout: inactive

stdin: How was `CCCCCCCOC(=O)c1ccccc1C(=O)OCCCCCCC` classified in this test?
stdout: inactive

Every entry's value here was drawn from PubChem BioAssay (EPA / NIEHS).
